FYI, the data here is from ChEMBL document CHEMBL1629479.

# Tested on: SH-SY5Y
# assay_overview: Neuroprotective activity against H2O2-induced oxidative stress in human SH-SY5Y cells assessed as LDH release at 1 uM after 24 hrs by UV-vis spectroscopy
# Assay type: functional
observation_type: Activity (%)

compound	result_unit	reported_value
Cc1c(C)c2c(c(C)c1O)CCC(C)(C(=O)O)O2 (configuration not stated)	%	0
CC(=O)NN1c2ccccc2Sc2ccc(Cl)cc21	%	0
CN1CCN(CC(=O)NN2c3ccccc3Sc3cc(Cl)ccc32)CC1	%	12.5
CC(=O)n1c2ccccc2sc2cccc(Cl)c2n1C(C)=O	%	0
NN1c2ccccc2Sc2ccccc21	%	0
CN(C)CCC(=O)NN1c2ccccc2Sc2cc(Cl)ccc21	%	0
CN1CCN(NCCN2c3ccccc3Sc3ccccc32)CC1.Cl.Cl	%	14.1

---

Each item that follows carries a reported IC50.
# assay_system: Cholinesterase (Equus caballus, UniProt P81908)
# Sequence (P81908 whole entry): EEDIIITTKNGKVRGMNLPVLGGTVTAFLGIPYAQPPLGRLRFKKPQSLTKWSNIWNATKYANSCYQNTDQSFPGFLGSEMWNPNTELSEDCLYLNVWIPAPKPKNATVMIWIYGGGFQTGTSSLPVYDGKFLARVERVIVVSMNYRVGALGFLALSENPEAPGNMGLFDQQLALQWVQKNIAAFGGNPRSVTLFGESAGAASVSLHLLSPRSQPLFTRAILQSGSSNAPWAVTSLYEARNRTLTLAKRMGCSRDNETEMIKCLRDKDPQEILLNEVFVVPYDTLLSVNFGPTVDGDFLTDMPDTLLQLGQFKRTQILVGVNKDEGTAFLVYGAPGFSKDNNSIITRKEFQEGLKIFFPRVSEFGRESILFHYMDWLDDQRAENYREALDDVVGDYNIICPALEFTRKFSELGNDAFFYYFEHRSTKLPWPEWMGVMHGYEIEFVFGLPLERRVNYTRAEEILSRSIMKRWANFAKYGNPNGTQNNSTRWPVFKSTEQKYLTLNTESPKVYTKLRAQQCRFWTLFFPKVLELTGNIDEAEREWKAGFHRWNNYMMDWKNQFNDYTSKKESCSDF
# assay_overview: Inhibition of equine serum BuChE by Ellman's method

structure_string	qualifying_sign	IC50 [µM]
CC(=O)n1c2ccccc2sc2cccc(Cl)c2n1C(C)=O	>	100
CC(=O)NN1c2ccccc2Sc2ccc(Cl)cc21	>	100
CN(C)CCC(=O)NN1c2ccccc2Sc2cc(Cl)ccc21	=	0.7
NN1c2ccccc2Sc2ccccc21	>	100
CN1CCN(CC(=O)NN2c3ccccc3Sc3cc(Cl)ccc32)CC1	=	0.5
CN1CCN(NCCN2c3ccccc3Sc3ccccc32)CC1.Cl.Cl	=	50

---

# assay_overview: Permeability of the compound by PAMPA at pH 7.4
# Assay type: ADME
# setup_conditions: read-out: permeability

structure_string	Papp
CC(=O)n1c2ccccc2sc2cccc(Cl)c2n1C(C)=O	7.7 ×10⁻⁶ cm/s
CN(C)CCC(=O)NN1c2ccccc2Sc2cc(Cl)ccc21	8.8 ×10⁻⁶ cm/s
CN1CCN(NCCN2c3ccccc3Sc3ccccc32)CC1.Cl.Cl	9.1 ×10⁻⁶ cm/s

---

# Tested on: SH-SY5Y
# assay_overview: Neuroprotective activity against H2O2-induced oxidative stress in human SH-SY5Y cells assessed as LDH release at 3 uM after 24 hrs by UV-vis spectroscopy
# Format: functional
Please use rule met for Activity under 8% and rule not met for everything else, ties included.

compound	assay_system	class_assignment
CN(C)CCC(=O)NN1c2ccccc2Sc2cc(Cl)ccc21	SH-SY5Y	rule not met
NN1c2ccccc2Sc2ccccc21	SH-SY5Y	rule met
CC(=O)NN1c2ccccc2Sc2ccc(Cl)cc21	SH-SY5Y	rule met
CN1CCN(NCCN2c3ccccc3Sc3ccccc32)CC1.Cl.Cl	SH-SY5Y	rule not met
Cc1c(C)c2c(c(C)c1O)CCC(C)(C(=O)O)O2 (configuration not stated) [TROLOX]	SH-SY5Y	rule met
CC(=O)n1c2ccccc2sc2cccc(Cl)c2n1C(C)=O	SH-SY5Y	rule met
CN1CCN(CC(=O)NN2c3ccccc3Sc3cc(Cl)ccc32)CC1	SH-SY5Y	rule not met
